- measuredOn: amylin receptor (nucleus accumbens membranes prepared from rat brain) (rat, UniProt P32214 25-516)
- Sequence (P32214 25-516): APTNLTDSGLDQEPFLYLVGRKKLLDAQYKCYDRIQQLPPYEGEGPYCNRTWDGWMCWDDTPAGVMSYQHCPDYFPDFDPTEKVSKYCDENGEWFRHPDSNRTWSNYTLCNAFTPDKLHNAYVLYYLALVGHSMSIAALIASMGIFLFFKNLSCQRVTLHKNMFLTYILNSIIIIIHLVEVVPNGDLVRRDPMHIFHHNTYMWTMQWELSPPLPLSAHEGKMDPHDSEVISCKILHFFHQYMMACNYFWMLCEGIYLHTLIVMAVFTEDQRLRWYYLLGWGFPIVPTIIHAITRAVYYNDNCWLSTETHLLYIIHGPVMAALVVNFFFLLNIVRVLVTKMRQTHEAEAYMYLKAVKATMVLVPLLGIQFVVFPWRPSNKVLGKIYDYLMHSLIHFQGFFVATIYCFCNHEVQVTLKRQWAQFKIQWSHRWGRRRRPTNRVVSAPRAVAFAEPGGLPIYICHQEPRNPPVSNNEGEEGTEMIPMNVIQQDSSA
- protocolDetails: radioligand displacement, 125I-rat amylin, rat nucleus accumbens membranes
pIC50: −log10 of the molar value. Ends that are not written are not given here.
The entries below are paired with their reported pIC50.
observationType: pIC50

>  <binder>
VGCVLGTCQVQNLSHRLWQLRQDSAPVDPSSPHSY-NH2 (ends and bridges not checked) [AFP-6 analog SEQ ID NO: 18]

>  <valueReported>
7.74

$$$$
>  <binder>
GCSNLSTCQVQNLSHRLWQLRQDSAPVEPSSPHSY-NH2 (ends and bridges not checked) [AFP-6 analog SEQ ID NO: 38]

>  <valueReported>
8.00

$$$$
>  <binder>
RVGCVLGTCQVQNLSHRLWQLMGPAGRQDSAPVDPSSPHSY-NH2 (ends and bridges not checked) [AFP-6 analog SEQ ID NO: 10]

>  <valueReported>
8.29

$$$$
>  <binder>
TQAQLLRVGCNTATCQVQNLSHRLWQLMGPAGRQDSAPVDPSSPHSY-NH2 (ends and bridges not checked) [AFP-6 analog SEQ ID NO: 21]

>  <valueReported>
8.08

$$$$
>  <binder>
VGCVLGTCQVQNLSHRLWQLMGPAGRQDSAPVDPSSPHSY-NH2 (not fully specified; ends and bridges not checked) [Human AFP-6 [8-47]]

>  <valueReported>
7.92

$$$$
